- measurement target: UGT1A1 (Homo sapiens)
- Sequence (P22309 26-533): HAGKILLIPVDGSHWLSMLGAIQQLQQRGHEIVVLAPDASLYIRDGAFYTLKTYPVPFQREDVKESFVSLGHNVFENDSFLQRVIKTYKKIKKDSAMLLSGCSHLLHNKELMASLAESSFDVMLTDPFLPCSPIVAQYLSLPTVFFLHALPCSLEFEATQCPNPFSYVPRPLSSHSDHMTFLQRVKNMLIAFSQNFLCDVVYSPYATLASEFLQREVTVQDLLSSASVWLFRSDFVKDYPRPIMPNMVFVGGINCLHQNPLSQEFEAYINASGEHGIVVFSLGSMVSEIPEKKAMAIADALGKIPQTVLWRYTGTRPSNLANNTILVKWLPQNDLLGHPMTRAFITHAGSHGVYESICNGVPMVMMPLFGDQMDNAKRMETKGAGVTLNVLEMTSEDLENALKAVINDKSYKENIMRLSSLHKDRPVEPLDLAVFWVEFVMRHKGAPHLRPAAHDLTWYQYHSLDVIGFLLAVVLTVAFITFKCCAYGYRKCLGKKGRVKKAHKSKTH
- measurement protocol: Inhibition of recombinant UGT1A1 activity (4-MU glucuronidation)
pIC50: −log10 of the molar value.
List of pIC50 values.

Study these solved cases before continuing.
[
  {
    "compound": "COc1ccc(-c2oc3c(CC=C(C)C)c(O)cc(O)c3c(=O)c2O)cc1 [Icaritin]",
    "recorded value": "< 4.00"
  },
  {
    "compound": "COc1ccc(-c2oc3c(CC=C(C)C)c(O[C@@H]4O[C@H](CO)[C@@H](O)[C@H](O)[C@H]4O)cc(O)c3c(=O)c2O[C@@H]2O[C@@H](C)[C@H](O)[C@@H](O)[C@H]2O)cc1 [Icariin]",
    "recorded value": "< 4.00"
  }
]

Query block: For the compound COc1ccc(-c2oc3c(CC=C(C)C)c(O[C@@H]4O[C@H](CO)[C@@H](O)[C@H](O)[C@H]4O)cc(O)c3c(=O)c2O)cc1 [Icariside I] , what pIC50 is on record?
Result block: < 4.00

* * *

- measurement target: UGT1A10 (Homo sapiens, UniProt Q9HAW8)
- Sequence (Q9HAW8 26-530): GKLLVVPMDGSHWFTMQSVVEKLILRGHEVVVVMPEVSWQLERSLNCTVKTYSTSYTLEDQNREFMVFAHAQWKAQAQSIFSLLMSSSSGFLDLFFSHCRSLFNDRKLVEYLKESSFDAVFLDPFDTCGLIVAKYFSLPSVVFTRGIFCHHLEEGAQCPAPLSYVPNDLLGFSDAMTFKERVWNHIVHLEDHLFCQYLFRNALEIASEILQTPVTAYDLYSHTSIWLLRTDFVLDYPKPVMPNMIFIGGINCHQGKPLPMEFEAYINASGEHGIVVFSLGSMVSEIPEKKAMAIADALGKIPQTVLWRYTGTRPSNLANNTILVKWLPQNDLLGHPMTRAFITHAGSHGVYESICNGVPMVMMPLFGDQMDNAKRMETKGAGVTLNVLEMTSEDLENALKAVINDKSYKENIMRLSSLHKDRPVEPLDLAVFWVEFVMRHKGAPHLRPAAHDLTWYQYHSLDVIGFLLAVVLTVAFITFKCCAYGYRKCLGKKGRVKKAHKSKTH
- measurement protocol: Inhibition of recombinant UGT1A10 activity (4-MU glucuronidation)
- Procedure: A panel of recombinant human UGT supersomes (UGT1A1, UGT1A3, UGT1A4, UGT1A6, UGT1A7, UGT1A8, UGT1A9, UGT1A10, UGT2B4, UGT2B7, UGT2B15, and UGT2B17) expressed in baculovirus-infected insect cells were purchased from BD Gentest Corp. (Woburn, MA, USA). 4-MU, a nonselective substrate of UGTs, was used as probe substrate for all UGTs except UGT1A4. Incubations with each individual enzyme were conducted using conditions previously described. […] Aliquots (20 μL) were then analyzed by HPLC. […]
measured attribute: IC50

[
  {
    "compound": "COc1ccc(-c2oc3c(CC=C(C)C)c(O)cc(O)c3c(=O)c2O)cc1",
    "measurement target": "UGT1A10 (Homo sapiens, UniProt Q9HAW8)",
    "recorded value": "> 100 µM"
  },
  {
    "compound": "COc1ccc(-c2oc3c(CC=C(C)C)c(O[C@@H]4O[C@H](CO)[C@@H](O)[C@H](O)[C@H]4O)cc(O)c3c(=O)c2O[C@@H]2O[C@@H](C)[C@H](O)[C@@H](O)[C@H]2O)cc1",
    "measurement target": "UGT1A10 (Homo sapiens, UniProt Q9HAW8)",
    "recorded value": "> 100 µM"
  }
]

// moving on: another record for IC50
Query block: Field: IC50 (UGT1A10 (Homo sapiens, UniProt Q9HAW8)). Entry: COc1ccc(-c2oc3c(CC=C(C)C)c(O[C@@H]4O[C@H](CO)[C@@H](O)[C@H](O)[C@H]4O)cc(O)c3c(=O)c2O)cc1 [Icariside I]
Result block: > 100 µM

* * *

- measurement target: UGT1A7 (Homo sapiens, UniProt Q9HAW7)
- Sequence (Q9HAW7 26-530): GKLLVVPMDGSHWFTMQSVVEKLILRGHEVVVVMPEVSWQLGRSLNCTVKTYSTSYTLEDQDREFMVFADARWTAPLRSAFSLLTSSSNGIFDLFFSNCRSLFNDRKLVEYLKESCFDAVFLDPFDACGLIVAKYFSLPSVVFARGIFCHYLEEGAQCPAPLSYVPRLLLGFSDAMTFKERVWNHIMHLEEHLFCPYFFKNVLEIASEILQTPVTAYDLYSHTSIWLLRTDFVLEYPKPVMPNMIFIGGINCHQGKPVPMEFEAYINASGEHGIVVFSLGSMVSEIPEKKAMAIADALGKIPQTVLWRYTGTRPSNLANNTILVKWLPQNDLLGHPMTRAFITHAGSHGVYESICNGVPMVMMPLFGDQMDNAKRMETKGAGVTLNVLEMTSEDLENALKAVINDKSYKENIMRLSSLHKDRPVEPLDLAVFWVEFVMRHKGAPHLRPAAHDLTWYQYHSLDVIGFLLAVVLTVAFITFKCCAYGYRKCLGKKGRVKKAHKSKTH
- measurement protocol: Inhibition of recombinant UGT1A7 activity (4-MU glucuronidation)
measured attribute: IC50

Query block: For the molecule COc1ccc(-c2oc3c(CC=C(C)C)c(O[C@@H]4O[C@H](CO)[C@@H](O)[C@H](O)[C@H]4O)cc(O)c3c(=O)c2O[C@@H]2O[C@@H](C)[C@H](O)[C@@H](O)[C@H]2O)cc1 , what IC50 is on record?
Result block: > 100 µM

Query block: For the molecule COc1ccc(-c2oc3c(CC=C(C)C)c(O)cc(O)c3c(=O)c2O)cc1 , what IC50 is on record?
Result block: 0.3 µM

Query block: For the molecule COc1ccc(-c2oc3c(CC=C(C)C)c(O[C@@H]4O[C@H](CO)[C@@H](O)[C@H](O)[C@H]4O)cc(O)c3c(=O)c2O)cc1 [Icariside I] , what IC50 is on record?
Result block: > 100 µM

* * *

List of IC50 values.
- measurement target: UGT1A9 (Homo sapiens)
- Sequence (O60656 26-530): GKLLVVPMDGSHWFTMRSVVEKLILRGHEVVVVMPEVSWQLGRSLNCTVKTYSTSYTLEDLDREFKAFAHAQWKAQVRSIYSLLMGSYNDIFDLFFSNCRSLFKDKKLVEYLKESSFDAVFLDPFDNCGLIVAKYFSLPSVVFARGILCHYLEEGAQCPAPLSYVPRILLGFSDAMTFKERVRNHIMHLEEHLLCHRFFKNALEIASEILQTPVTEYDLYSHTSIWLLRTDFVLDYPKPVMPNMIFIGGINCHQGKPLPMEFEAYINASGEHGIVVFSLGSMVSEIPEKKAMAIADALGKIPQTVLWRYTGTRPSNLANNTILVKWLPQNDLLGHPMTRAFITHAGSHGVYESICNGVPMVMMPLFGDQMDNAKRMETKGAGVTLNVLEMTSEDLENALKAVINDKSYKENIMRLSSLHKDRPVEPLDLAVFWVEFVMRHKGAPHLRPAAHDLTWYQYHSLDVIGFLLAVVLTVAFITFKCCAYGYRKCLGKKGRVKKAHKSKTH
- measurement protocol: Inhibition of recombinant UGT1A9 activity (4-MU glucuronidation)

Study these solved cases before continuing.
[
  {
    "compound": "COc1ccc(-c2oc3c(CC=C(C)C)c(O)cc(O)c3c(=O)c2O)cc1 [Icaritin]",
    "measurement target": "UGT1A9 (Homo sapiens)",
    "measured attribute": "IC50",
    "recorded value": "1.5 µM"
  },
  {
    "compound": "COc1ccc(-c2oc3c(CC=C(C)C)c(O[C@@H]4O[C@H](CO)[C@@H](O)[C@H](O)[C@H]4O)cc(O)c3c(=O)c2O[C@@H]2O[C@@H](C)[C@H](O)[C@@H](O)[C@H]2O)cc1 [Icariin]",
    "measurement target": "UGT1A9 (Homo sapiens)",
    "measured attribute": "IC50",
    "recorded value": "> 100 µM"
  }
]

// moving on: another record for IC50
Query block: For the compound COc1ccc(-c2oc3c(CC=C(C)C)c(O[C@@H]4O[C@H](CO)[C@@H](O)[C@H](O)[C@H]4O)cc(O)c3c(=O)c2O)cc1 [Icariside I] , what IC50 is on record?
Result block: > 100 µM

* * *

- measurement target: UGT1A7 (Homo sapiens, UniProt Q9HAW7)
- measurement protocol: Inhibition of recombinant UGT1A7 activity (4-MU glucuronidation)
measured attribute: Ki

Query block: For the molecule COc1ccc(-c2oc3c(CC=C(C)C)c(O)cc(O)c3c(=O)c2O)cc1 , what Ki is on record?
Result block: 700 nM

* * *

List of pIC50 values.
- measurement target: UGT2B17 (Homo sapiens, UniProt O75795)
- Sequence (O75795 24-530): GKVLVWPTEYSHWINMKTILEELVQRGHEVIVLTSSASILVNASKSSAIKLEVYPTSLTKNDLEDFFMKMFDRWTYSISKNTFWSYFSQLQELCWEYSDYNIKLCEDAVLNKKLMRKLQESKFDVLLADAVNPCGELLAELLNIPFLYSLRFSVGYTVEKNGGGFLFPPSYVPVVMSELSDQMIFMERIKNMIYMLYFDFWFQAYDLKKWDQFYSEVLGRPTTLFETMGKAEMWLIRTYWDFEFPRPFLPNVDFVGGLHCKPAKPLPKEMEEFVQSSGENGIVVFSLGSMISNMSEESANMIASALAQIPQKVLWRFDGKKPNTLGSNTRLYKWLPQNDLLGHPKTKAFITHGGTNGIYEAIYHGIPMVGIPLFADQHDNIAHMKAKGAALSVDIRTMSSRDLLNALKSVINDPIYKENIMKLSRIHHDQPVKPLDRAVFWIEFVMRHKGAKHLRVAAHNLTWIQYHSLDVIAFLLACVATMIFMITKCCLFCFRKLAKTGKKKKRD
- measurement protocol: Inhibition of recombinant UGT2B17 activity (4-MU glucuronidation)
- Experimental: A panel of recombinant human UGT supersomes (UGT1A1, UGT1A3, UGT1A4, UGT1A6, UGT1A7, UGT1A8, UGT1A9, UGT1A10, UGT2B4, UGT2B7, UGT2B15, and UGT2B17) expressed in baculovirus-infected insect cells were purchased from BD Gentest Corp. (Woburn, MA, USA). 4-MU, a nonselective substrate of UGTs, was used as probe substrate for all UGTs except UGT1A4. Incubations with each individual enzyme were conducted using conditions previously described. […] Aliquots (20 μL) were then analyzed by HPLC. […]
pIC50: −log10 of the molar value.

Study these solved cases before continuing.
[
  {
    "compound": "COc1ccc(-c2oc3c(CC=C(C)C)c(O[C@@H]4O[C@H](CO)[C@@H](O)[C@H](O)[C@H]4O)cc(O)c3c(=O)c2O)cc1 [Icariside I]",
    "recorded value": "< 4.00"
  },
  {
    "compound": "COc1ccc(-c2oc3c(CC=C(C)C)c(O)cc(O)c3c(=O)c2O)cc1 [Icaritin]",
    "recorded value": "< 4.00"
  }
]

// moving on: another record for pIC50
Query block: For the compound COc1ccc(-c2oc3c(CC=C(C)C)c(O[C@@H]4O[C@H](CO)[C@@H](O)[C@H](O)[C@H]4O)cc(O)c3c(=O)c2O[C@@H]2O[C@@H](C)[C@H](O)[C@@H](O)[C@H]2O)cc1 [Icariin] , what pIC50 is on record?
Result block: < 4.00
